- Run description: chemical genetic growth profiling, strain panel (AID 1159580);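 note: tested at 20 µM; growth read once vehicle control cultures reached saturation at 30 °C; lower values mean less growth of the strain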
- Measurement parameters: S. cerevisiae deletion strains, growth OD, locus YDR318W, strain mcm21, active compounds read low
The campaign covered roughly 5,500 compounds. About 2,000 (36%) were called active. Roughly 18% stayed inconclusive and do not appear here. The list shows a part of the results.
One threshold, 1, splits the recorded normalized growth values: lower ones are Satisfied, equal or higher ones are Not satisfied.

// query State whether 1 exceeds normalized growth recorded for COC(=O)Nc1nc2ccc(C(=O)c3ccccc3)cc2[nH]1 .
// result Satisfied

// query State whether 1 exceeds normalized growth recorded for C/C=C(/C)C(=O)OC1CCC2(C)C3CCC4C5(O)CC(O)C6(O)C(CN7CC(C)CCC7C6(C)O)C5(O)CC42OC13O (configuration not stated) .
// result Satisfied

// query State whether 1 exceeds normalized growth recorded for CC(C)(Sc1cc(C(C)(C)C)c(O)c(C(C)(C)C)c1)Sc1cc(C(C)(C)C)c(O)c(C(C)(C)C)c1 .
// result Not satisfied

// query State whether 1 exceeds normalized growth recorded for CC1(C)CC[C@@]2(C(=O)O)C(C1)C1=CCC3[C@@]4(C)CC[C@H](O)C(C)(C)C4CC[C@@]3(C)[C@]1(C)C[C@@H]2O (some centres not stated) .
// result Not satisfied

// query State whether 1 exceeds normalized growth recorded for O=C1C(O)=C(O)C(=O)C(O)=C1O .
// result Not satisfied

// query State whether 1 exceeds normalized growth recorded for CC(C)=CCCC1(C)C=Cc2c(O)c3c(c(CC=C(C)C)c2O1)OC12C(=CC4CC1C(C)(C)OC2(C/C=C(\C)C(N)=O)C4=O)C3=O (configuration not stated) .
// result Satisfied

// query State whether 1 exceeds normalized growth recorded for N=C(N)c1ccc(OCCCCCOc2ccc(C(=N)N)cc2)cc1 .
// result Satisfied

// query State whether 1 exceeds normalized growth recorded for C[C@@H]1OC(O[C@H]2C(O[C@H]3CC[C@@]4(C)C(CC[C@]5(C)C4CC=C4C6CC(C)(C)CC[C@]6(C(=O)O)CC[C@]45C)[C@]3(C)CO)OC[C@H](O)[C@@H]2O)[C@H](O)[C@H](O)[C@H]1O (some centres not stated) .
// result Satisfied

// query State whether 1 exceeds normalized growth recorded for C[C@@H]1OC(O[C@H]2[C@H](OC(=O)[C@]34CCC(C)(C)CC3C3=CCC5[C@@]6(C)CC[C@H](OC7O[C@@H](C)[C@H](O[C@@H]8OC[C@@H](O)[C@H](O)[C@H]8O)[C@@H](O)[C@H]7O)C(C)(C)C6CC[C@@]5(C)[C@]3(C)CC4O)OC[C@H](O)[C@H]2O)[C@H](O)[C@H](O)[C@H]1O[C@@H]1O[C@H](CO)[C@@H](O)[C@H](O)[C@H]1O (some centres not stated) .
// result Satisfied

// query State whether 1 exceeds normalized growth recorded for O=c1[nH]cc(F)c(=O)[nH]1 .
// result Satisfied
